These data points were gathered from PubChem BioAssay AID2060490.

Test system: 885512-296-R-J2-PDC complex spheroid viability;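 also: spheroids exposed to the compounds for one week; percent of tumor spheroid viability relative to DMSO vehicle control wells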
assayInfo: Anticancer human tumor 885512-296-R-J2-PDC patient-derived breast carcinoma cell line growth inhibition [GQUAD]
conditionParameters: second compound 3.16 µM; first compound 0.0316 µM; active compounds read low
observationType: viability, T/C (%)
Note: unit % is implicit; provide only the numeric part.

Known viability, T/C results, listed for orientation:
compound	quantitativeResult
COc1ncnc(C2CC2)c1-c1ncc2cnn(Cc3ccc(-c4nc(C(F)(F)F)cn4C(C)C)cc3)c2n1 + CN(C)c1ccc(Nc2c3ccc(NC(=O)CCN4CCCC4)cc3nc3cc(NC(=O)CCN4CCCC4)ccc23)cc1	99.4
COc1cc(C2c3cc4c(cc3C(OC3OC5COC(C)OC5C(O)C3O)C3COC(=O)C23)OCO4)cc(OC)c1O (stereo not drawn) + CN(C)c1ccc(Nc2c3ccc(NC(=O)CCN4CCCC4)cc3nc3cc(NC(=O)CCN4CCCC4)ccc23)cc1	88.5

Q: Which viability, T/C reading was recorded for the compound CC1COCCN1c1cc(C2(S(C)(=N)=O)CC2)nc(-c2ccnc3[nH]ccc23)n1 (stereo not drawn) + CN(C)c1ccc(Nc2c3ccc(NC(=O)CCN4CCCC4)cc3nc3cc(NC(=O)CCN4CCCC4)ccc23)cc1 ?
A: 96.7
